Test system: ATP;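 note: ATP exposure 15 min at 22 °C before imaging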
EXPERIMENT_DESCRIPTION: switch fluorescence ratio, 500 uM ATP over buffer (Cy3 cluster intensity, sum of 5 cycles each) (fold (ratio)); higher = stronger signal-on switching upon ATP binding; sequences stand for … in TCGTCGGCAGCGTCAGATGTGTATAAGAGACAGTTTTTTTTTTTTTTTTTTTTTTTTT…TC
CONDITION_DESCRIPTION: aptamer strand: ATP DNA aptamer (quencher-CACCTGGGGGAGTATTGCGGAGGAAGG + anchor), 100 nM annealed; ATP concentration: 500 uM
VALUE_KIND: switch fluorescence ratio
# respond with the number and nothing more

Worked set:
GGGGATTAAT: 0.99
ATGTCACTTG: 1.02
TTCTATGGCA: 0.984

# ---- query sequence ----
# lookup: AAATTTATAT on ATP, switch fluorescence ratio = 1.02
